So I've got a bunch of compounds here, and I need their Ratio Ki values.
# Species: Cavia porcellus
# measurement.notes: Selectivity ratio of Ki for sigma 2 receptor in Dunkin Hartley guinea pig membrane to Ki for sigma 1 receptor in Dunkin Hartley guinea pig membrane
# Type: cell membranes
Answers are plain numbers.

query.smiles: O=C1CCc2ccc(OCCCCCN3CCOCC3)cc2N1Cc1ccccc1
property.label: Ratio Ki
numeric.readout: 20.4
--
query.smiles: O=C1CCc2ccc(OCCCN3CCCCC3)cc2N1
property.label: Ratio Ki
numeric.readout: 3.2
--
query.smiles: O=C1CCc2ccc(OCCCN3CCCCC3)cc2N1Cc1ccccc1
property.label: Ratio Ki
numeric.readout: 360
--
query.smiles: O=C1CCc2ccc(OCCCCN3CCOCC3)cc2N1Cc1ccccc1
property.label: Ratio Ki
numeric.readout: 8.8
--
query.smiles: O=C1CCc2ccc(OCCCN3CCOCC3)cc2N1Cc1ccccc1
property.label: Ratio Ki
numeric.readout: 31.8
--
query.smiles: O=C1CCN(CCCOc2ccc3c(c2)N(Cc2ccccc2)C(=O)CC3)CC1
property.label: Ratio Ki
numeric.readout: 18.3
--
query.smiles: O=C1CCc2ccc(OCCCCN3CCOCC3)cc2N1CCc1ccccc1
property.label: Ratio Ki
numeric.readout: 26.8

Please turn your attention to the following entry.
// Ratio Ki lookup, key: CC1CCN(CCCOc2ccc3c(c2)N(C)C(=O)CC3)CC1
7.7

---

# Species on record: Cavia porcellus
# measurement.notes: Selectivity ratio of Ki for sigma 2 receptor in Dunkin Hartley guinea pig membrane to Ki for sigma 1 receptor in Dunkin Hartley guinea pig membrane
# Assay type: cell membranes
Would you mind telling me the reported Ratio Ki of each entry?
Give bare numbers.

query.smiles: O=C1CCc2cc(OCCCN3CCOCC3)ccc2N1CCc1ccccc1
numeric.readout: 2.4

Hi there! I need Ratio Ki for each item below, if you can.
1. CC1CCN(CCCOc2ccc3c(c2)NC(=O)CC3)CC1
2. O=C1CCc2cc(OCCCCCN3CCOCC3)ccc2N1Cc1ccccc1
3. O=C1CCc2ccc(OCCCN3CCCC3)cc2N1Cc1ccccc1
4. O=C1CCc2cc(OCCCN3CCOCC3)ccc2N1Cc1ccccc1
5. O=C1CCc2cc(OCCCCN3CCOCC3)ccc2N1Cc1ccccc1

1: 6.1; 2: 6.1; 3: 23.1; 4: 1.4; 5: 11.7

---

# measurement.notes: Displacement of [3H]-DTG from sigma 2 receptor in Dunkin Hartley guinea pig membrane after 120 mins by liquid scintillation counting analysis […]
# Assay type: cell membranes, Cavia porcellus
Exercise: state measured pKi for each of the compounds provided.
One number for each entry, as −log10 of the molar value.

Worked cases, answers included:
query.smiles: Cc1ccccc1NC(=N)Nc1ccccc1C
pKi: 7.31
//
query.smiles: O=C1CCc2ccc(OCCCN3CCCC3)cc2N1Cc1ccccc1
pKi: 6.26
//
query.smiles: CC1CCN(CCCOc2ccc3c(c2)NC(=O)CC3)CC1
pKi: 6.39

Consider the following items and state reported pKi for each.
1. Cc1ccc(CN2C(=O)CCc3ccc(OCCCN4CCC(C)CC4)cc32)cc1
2. CN1CCN(CCCOc2ccc3c(c2)N(Cc2ccccc2)C(=O)CC3)CC1
3. O=C1CCc2ccc(OCCCN3CCOCC3)cc2N1Cc1ccccc1
4. O=C1CCc2cc(OCCCCN3CCOCC3)ccc2N1Cc1ccccc1
5. O=C1CCc2cc(OCCCN3CCOCC3)ccc2N1Cc1ccccc1
6. O=C1CCc2ccc(OCCCN3CCCCC3)cc2N1Cc1ccccc1

1. 6.12
2. 6.79
3. 6.33
4. 6.59
5. 5.95
6. 6.18

Batch request: pKi for each of the following compounds.
1. O=C(CCCN1CCC(O)(c2ccc(Cl)cc2)CC1)c1ccc(F)cc1
2. CN1C(=O)CCc2ccc(OCCCN3CCCCC3)cc21

7.44
6.45

Quick one: give me pKi for each item below, same order please.
1. Cc1ccc(CN2C(=O)CCc3ccc(OCCCN4CCCCC4)cc32)cc1
2. O=C1CCc2ccc(OCCCCN3CCOCC3)cc2N1Cc1ccccc1
3. CCN(CC)CCCOc1ccc2c(c1)N(Cc1ccccc1)C(=O)CC2
4. O=C1CCc2cc(OCCCCCN3CCOCC3)ccc2N1Cc1ccccc1
5. O=C1CCN(CCCOc2ccc3c(c2)N(Cc2ccccc2)C(=O)CC3)CC1
6. O=C1CCc2ccc(OCCCN3CCCCC3)cc2N1Cc1ccc(F)cc1

1: 6.08; 2: 6.28; 3: 7.01; 4: 6.37; 5: 5.74; 6: 5.89
